Test target: CYP3A4 (Homo sapiens)
Construct: purchased BD Gentest
Sequence (P08684 whole entry): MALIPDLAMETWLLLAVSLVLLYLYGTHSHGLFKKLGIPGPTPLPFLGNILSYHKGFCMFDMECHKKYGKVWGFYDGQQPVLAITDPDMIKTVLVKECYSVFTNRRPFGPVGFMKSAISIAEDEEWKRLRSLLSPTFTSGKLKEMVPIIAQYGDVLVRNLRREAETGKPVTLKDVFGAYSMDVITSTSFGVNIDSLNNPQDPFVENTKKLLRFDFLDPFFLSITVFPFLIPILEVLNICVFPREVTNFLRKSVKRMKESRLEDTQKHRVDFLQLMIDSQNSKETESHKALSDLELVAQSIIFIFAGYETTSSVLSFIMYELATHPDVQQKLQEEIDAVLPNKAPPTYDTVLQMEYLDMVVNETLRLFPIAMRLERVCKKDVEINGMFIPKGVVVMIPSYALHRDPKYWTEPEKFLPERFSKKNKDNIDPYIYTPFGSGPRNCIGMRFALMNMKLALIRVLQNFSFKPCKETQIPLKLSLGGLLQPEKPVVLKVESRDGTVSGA
Test name: Metabolic stability in CYP3A4 Supersomes
Type: in vitro ADME
Condition notes: human, recombinant CYP3A4 Supersomes, pH 7.4, in vitro half-life; 40 pmol/mL CYP3A4 supersomes, 1 μM test compound, 2 mM NADPH, pH 7.4, 37° C., 0-30 minutes; Experiment 1; read-out: t1/2 (minutes) Experiment 1
Property label: half-life at 1 μM (min)
# number only, unit min dropped from output

[2H]C([2H])([2H])Oc1ccccc1Oc1c(NS(=O)(=O)c2ccc(C(C)(C)C)cc2)nc(-c2ncccn2)nc1OCCO :: 45.7
COc1ccccc1Oc1c(NS(=O)(=O)c2ccc(C(C)(C)C)cc2)nc(-c2ncccn2)nc1OCCO [Bosentan, reference compound] :: 34.3
[2H]C([2H])([2H])C(c1ccc(S(=O)(=O)Nc2nc(-c3ncccn3)nc(OCCO)c2Oc2ccccc2OC)cc1)(C([2H])([2H])[2H])C([2H])([2H])[2H] :: 35.9
[2H]C([2H])(O)COc1nc(-c2ncccn2)nc(NS(=O)(=O)c2ccc(C(C)(C)C)cc2)c1Oc1ccccc1OC :: 30.9
[2H]C([2H])([2H])Oc1ccccc1Oc1c(NS(=O)(=O)c2ccc(C(C([2H])([2H])[2H])(C([2H])([2H])[2H])C([2H])([2H])[2H])cc2)nc(-c2ncccn2)nc1OCCO :: 41

Proceed to the following item.
Inquiry: What does the data say about its half-life at 1 μM? Entry: "[2H]C([2H])(O)COc1nc(-c2ncccn2)nc(NS(=O)(=O)c2ccc(C(C([2H])([2H])[2H])(C([2H])([2H])[2H])C([2H])([2H])[2H])cc2)c1Oc1ccccc1OC([2H])([2H])[2H]"
Reply text: 53.3
